Test system: RXRa homodimer (NR concentration 180 nM)
Assay: PBM binding z-score (relative to random genomic background probes); higher = stronger binding; sequences stand for … in GC…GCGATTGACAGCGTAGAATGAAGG
Readout type: PBM binding z-score
Write the value as a bare number.

{"Sequence input": "CAATCTAGGTCAAAGGTCAAAGTCGAGCCAACCA", "PBM binding z-score": 10.3}
{"Sequence input": "TCGAGTAGGTTATGGGGGCATTCAGGGATGAAGA", "PBM binding z-score": 2.1}
{"Sequence input": "CGAACTAGGTCACCAGGCCAGTGAAGAGGTTGGA", "PBM binding z-score": 3.21}
{"Sequence input": "CGAACTAGGTCACCAGGACACTGAAGAGGTTGGA", "PBM binding z-score": 3.65}

Query: Item AGAATGGGGTTAAGATCAGGGAAACAGAATACAT has what recorded PBM binding z-score?
Response: 4.56

Query: Okay, and CGTCCAAGGTCAATGCTAGCTCAGTGAAAGCATT ?
Response: 5.19

Query: Okay, and CGAACTAGGTCAAAGGACAGTGTAAGGCGACGTA ?
Response: 3.01

Query: Okay, and CCGAGTAGGTTACGACGGGGCATTCAGTGCGAAT ?
Response: 0.769

###

Test system: PPARa:RXRa (NR concentration 270 nM, RXRa partner concentration 90 nM)
Experiment: PBM binding z-score (relative to random genomic background probes); higher = stronger binding; sequences stand for … in GC…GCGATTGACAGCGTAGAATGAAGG
Readout type: PBM binding z-score
Write the value as a bare number.

{"Sequence input": "CCGGGTAGGTTACGAGGGGGCATTCAGTGCGAAT", "PBM binding z-score": 3.54}

Query: Item ATCGAAAGGTCGAAGGTGACTATACCCACCCGAA has what recorded PBM binding z-score?
Response: 4.92

Query: Okay, and GATACAGGGTCAATGCCAGAGTACGCGTATTGAT ?
Response: 5.2

###

Test system: LXRa:RXRa (NR concentration 270 nM, RXRa partner concentration 90 nM)
Assay: PBM binding z-score (relative to random genomic background probes); higher = stronger binding; sequences stand for … in GC…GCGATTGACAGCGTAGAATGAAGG
Hi, to clarify the labels: YES covers PBM binding z-score from 2 upward, NO covers anything below 2.

{"Sequence input": "ATATGTAGGTTAGGGTCCTTCAGAAAGTAGGGAA", "Group label": "NO"}
{"Sequence input": "AGTCATAGTTCACTAGGTAACGTAAGATTCAGCT", "Group label": "NO"}
{"Sequence input": "CAAACTAGGTCACAGAGGTCGAAGTCCGTGCGTA", "Group label": "YES"}
{"Sequence input": "CAAAGTAGGTCAAGAGGTCAAAGTCCGCTTCCCG", "Group label": "YES"}
{"Sequence input": "CTCCAAAGGTCGGTTGAGGTGAGTATACGGATAA", "Group label": "NO"}
{"Sequence input": "CCTTACAGGTCACGAGGTTATAGCACGACGAGCG", "Group label": "YES"}
{"Sequence input": "GCTTACGGGTCAAAGGTTATGGCATGAATAGAAT", "Group label": "YES"}
{"Sequence input": "TTACCAAGGTGAAAGGTCGTTGAGGCACGCCTTG", "Group label": "YES"}

Query: Check the entry CCTGCTAGTTCATGGTCAGCTAATCTACAGTATG : does PBM binding z-score equal or exceed 2?
Response: NO

Query: Okay, and CTCGAAAGGTCGGTTGAGGTGACTATACGGATAA ?
Response: NO

Query: Okay, and CGTCCAAGGTCAGTGAGGTCAGTGAATGCCGAGT ?
Response: YES

Query: Okay, and TATACAGGGTCAAAGGGCAGAGTACGAATGTCGA ?
Response: YES

Query: Okay, and CGTCCAAGGTCAATGCTAGGTCACTGAAAGCATT ?
Response: YES

Query: Okay, and ATATGTAGGTTAGGGGCATTCAGAAAGTAGGGAA ?
Response: NO

Query: Okay, and CCGAGTAGGTTACGAGGGGGCACTCAGTGCGAAT ?
Response: YES

Query: Okay, and TCTAGTTGGTTACGGAGGTCACACACGACGGGTA ?
Response: YES

Query: Okay, and CGTCCAAGGTCAAGCTCAGTGAAAGAGACTCGAA ?
Response: YES

Query: Okay, and TTTCCAAGGTGAAAGGTCGTTGATGCACGCCTTG ?
Response: YES

Query: Okay, and CAAGCTAGGTCAAGAGGTCAAAGTCCGCTTCCCG ?
Response: YES

Query: Okay, and ATTTGTAGGTTAGGGTCATTCAGAAAGTAGGGAA ?
Response: YES

Query: Okay, and CAAACTAGGTCAAAGGTCAAAGCCGAGCCAACCA ?
Response: YES

Query: Okay, and TCTCGGAGGACACGAAAGGGCAGAGCTCGACATC ?
Response: NO

Query: Okay, and GATTCAGGGTCAGCTAGAGGCCAGAGTATGGAAA ?
Response: YES

Query: Okay, and ATATGTAGGTTAGGGTCGTTCAGAAAGTAGGGAA ?
Response: YES

Query: Okay, and CTTAGTTGGTCAGGAGGTCACACACCGGATATGA ?
Response: YES

###

Below is a list of entries, each paired with its recorded PBM binding z-score value.
Test system: FXR:RXRa (NR concentration 270 nM, RXRa partner concentration 90 nM)
Assay: PBM binding z-score (relative to random genomic background probes); higher = stronger binding; sequences stand for … in GC…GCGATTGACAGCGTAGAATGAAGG
Write the value as a bare number.

{"Sequence input": "CGAACTAGGTCAAAGGACACTGAAAGGCGACGTA", "PBM binding z-score": 4.53}
{"Sequence input": "TCGAGTAAGTTACGGGGGCATTCAGGGATGAAGA", "PBM binding z-score": 1.79}
{"Sequence input": "TGTCAAAGCTCAAAGGTAACGTAAGTATCCACAC", "PBM binding z-score": 0.08}
{"Sequence input": "CGAACTAGGACAAAGGACAGTGAAAGGCGACGTA", "PBM binding z-score": -0.156}
{"Sequence input": "AGAATGGGGTTATTAAGATCAGGGAATTGCGGTC", "PBM binding z-score": 3.03}

Query: Item CCTACTGGGCCAATGTCATTGATCAGTCAAAGCA has what recorded PBM binding z-score?
Response: -0.931

###

Tested on: FXR:RXRa (NR concentration 270 nM, RXRa partner concentration 90 nM)
Experiment: PBM binding z-score (relative to random genomic background probes); higher = stronger binding; sequences stand for … in GC…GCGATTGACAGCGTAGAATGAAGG
Below is a list of entries, each paired with its recorded PBM binding z-score value.
Write the value as a bare number.

{"Sequence input": "ATATGTAGGTTAGGGTGATTCAGAAAGTAGGGAA", "Readout type": "PBM binding z-score", "Value": 1.37}
{"Sequence input": "CAAACTAGGTCACGAAAGGTCAAATTCGAATGAC", "Readout type": "PBM binding z-score", "Value": 7.71}
{"Sequence input": "ACTAGTTGGTCAGCTGAGGTCACACTCAATTCGG", "Readout type": "PBM binding z-score", "Value": 3.79}
{"Sequence input": "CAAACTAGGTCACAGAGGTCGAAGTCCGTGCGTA", "Readout type": "PBM binding z-score", "Value": 4.92}
{"Sequence input": "CGAACTAGGGCACCAGGACAGTGAAGAGGTTGGA", "Readout type": "PBM binding z-score", "Value": -0.211}
{"Sequence input": "CAAACTAGGTCACAGGGGTCAAAGTCCGTGCGTA", "Readout type": "PBM binding z-score", "Value": 7.54}

Query: Which measured PBM binding z-score belongs to ATACGTAGGTTATCGGGTCATTCAGTTTGCGCAT , tested on FXR:RXRa (NR concentration 270 nM, RXRa partner concentration 90 nM)?
Response: 3.01

Query: Okay, and AGTCAAAGTTCATCTAGGTATCGTAAGATATGCT ?
Response: 6.52

Query: Okay, and CCTACGGGGCCAAAGGTCATTGATTCCAATGCTC ?
Response: 5.67

Query: Okay, and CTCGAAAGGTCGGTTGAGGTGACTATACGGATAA ?
Response: 3.63

Query: Okay, and ATCGAAAGGTCGAAGGTGAGTCTACCCACCCGAA ?
Response: 4.39

Query: Okay, and ACTAGTTGGTCAGCTGAGGTCACACACAATTCGG ?
Response: 4.25

Query: Okay, and CCTTACGGGTCACTGACAGCTTATAGCATTTGGA ?
Response: 5.14

Query: Okay, and TAGCCTAGGTCATAGGCCAGTATACCACGCGAAC ?
Response: 4.26

Query: Okay, and CGAACTTGGTCAAAGGACAGTGAAAGGCGACGTA ?
Response: -0.082

Query: Okay, and CGAACTAGGTCAAAGAACAGTGAAAGGCGACGTA ?
Response: 3.3

Query: Okay, and CCGAGTAGGTTGCGAGGGGGCATTCAGTGCGAAT ?
Response: 1.26

Query: Okay, and CGTCCAAGGTCAAAGGTCAGGGAAGAGATGACGG ?
Response: 8.68

Query: Okay, and TCTAGTTGGTCAAAGGCCACACACTCGAAATGCG ?
Response: 0.691

All figures here come from the supplement of paper PMC6555819.
